Data origin: ChEMBL document CHEMBL1765077

- System: SW1573
- assayOverview: Antiproliferative activity against human SW1573 cells after 48 hrs
- Format: functional
- appliedConditions: SW1573, 48 h
GI50 reference

C#C/C=C\CC(O)C(Cl)C/C=C\CC(Cl)C(Br)CC (mixture of isomers) :: > 10 µg/mL
COC(=O)/C=C\[C@H]1C[C@H]2O[C@@H](C[C@H]2Cl)[C@@H](Br)C[C@H]2O[C@@H]2[C@H](C)O1 :: > 10 µg/mL
C[C@H]1/C=C/C[C@H](Br)[C@@H]2C[C@@H](Cl)[C@@H](C[C@H](C=C=CBr)O1)O2 :: > 10 µg/mL
C/C=C/[C@H]1C/C=C\C[C@@H](Cl)[C@@H](C[C@H](C=C=CBr)OC(C)=O)O1 :: > 10 µg/mL
C[C@@H]1O[C@@H](C=C=CBr)C[C@H]2O[C@@H](C[C@H]2Cl)[C@@H](Br)C[C@H]2O[C@H]12 :: > 10 µg/mL

Recorded result, `C/C=C/[C@H]1C/C=C\C[C@@H](Cl)[C@@H](C[C@@H](O)C=C=CBr)O1` , GI50: > 10 µg/mL
